B1: KCNK9 (parent)
chain: DVPDLQSVCSCTCYRSQDYGGRSV

Variants of: B1
methodSummary: protein stability index of a GFP-peptide fusion (GPS, HEK-293T) (PSI 1-6); higher = more stable;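 note: lentivirally expressed fusions sorted by FACS into six bins by GFP to DsRed ratio, PSI derived from sequencing read proportions per bin multiplied by bin number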
appliedConditions: c terminus: a fixed tail appended
experimentalReadout: protein stability index
Please state the value as a number alone, without comment.

Answered cases to consult:
DVPDLQSVCSCTCYRSQDYGGESV [R22E] ... 3.3
DVPDLVSVCSCTCYRSQDYGGRSV [Q6V] ... 1.97

Request: Reported protein stability index, variant DVPDLQSVCSCHCYRSQDYGGRSV [T12H] : ____
Result: 3.13

Request: Reported protein stability index, variant DVPDLQRVCSCTCYRSQDYGGRSV [S7R] : ____
Result: 1.57

Request: Reported protein stability index, variant DVPDLQSSCSCTCYRSQDYGGRSV [V8S] : ____
Result: 2.06

Request: Reported protein stability index, variant DVPDRQSVCSCTCYRSQDYGGRSV [L5R] : ____
Result: 1.77

Request: Reported protein stability index, variant DVGDLQSVCSCTCYRSQDYGGRSV [P3G] : ____
Result: 1.41

Request: Reported protein stability index, variant DVPDLQSVCSCTCYRSQDYGGRSA [V24A] : ____
Result: 1.68
